Cited source: ChEMBL document CHEMBL3853284

Reported IC50 values for a set of molecules
# Test Target: Large neutral amino acids transporter small subunit 3 (Homo sapiens, UniProt O75387)
# Sequence (O75387 whole entry): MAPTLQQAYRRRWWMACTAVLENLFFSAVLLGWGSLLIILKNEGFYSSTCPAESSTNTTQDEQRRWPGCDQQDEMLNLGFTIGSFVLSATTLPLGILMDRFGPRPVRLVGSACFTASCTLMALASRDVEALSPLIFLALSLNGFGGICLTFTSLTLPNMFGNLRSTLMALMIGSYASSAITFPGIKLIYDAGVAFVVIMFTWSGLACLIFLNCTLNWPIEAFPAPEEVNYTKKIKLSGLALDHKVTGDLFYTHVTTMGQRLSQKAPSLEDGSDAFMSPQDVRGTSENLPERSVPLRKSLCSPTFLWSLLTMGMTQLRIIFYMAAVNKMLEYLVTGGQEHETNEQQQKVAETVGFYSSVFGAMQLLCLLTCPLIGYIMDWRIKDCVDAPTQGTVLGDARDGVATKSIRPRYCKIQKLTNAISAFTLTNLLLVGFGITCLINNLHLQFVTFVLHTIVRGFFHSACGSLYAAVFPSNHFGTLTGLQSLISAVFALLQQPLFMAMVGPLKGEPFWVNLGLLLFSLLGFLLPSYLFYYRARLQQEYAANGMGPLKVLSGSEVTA
# Protocol Description: Inhibition of LAT3 in human LNCAP cells assessed as inhibition of [3H]L-leucine uptake after 15 mins by liquid scintillation counting method
Numeric only. Scale: µM

Examples from the recorded data:
CC(=O)OC[C@@]12[C@@H](OC(C)=O)CC[C@@H](C)[C@]13OC(C)(C)[C@H]([C@@H](O)[C@H]2OC(=O)c1ccccc1)[C@H]3OC(C)=O : 124
CC(=O)OC[C@@]12[C@@H](OC(C)=O)CC[C@@H](C)[C@]13OC(C)(C)[C@H](C(=O)[C@H]2OC(=O)c1ccccc1)[C@H]3OC(C)=O : 151

Note: attention shifts to another entry.
Name the recorded IC50 for CC(=O)O[C@@H]1[C@@H]2[C@@H](OC(C)=O)[C@]3(OC2(C)C)[C@H](C)CC[C@H](OC(C)=O)[C@@]3(C)[C@@H]1OC(=O)c1ccccc1 .
15.5
